- Test system: MDA-MB-435 melanoma
- method: NCI-60 one-dose screen, 48 h (100 = growth as untreated, 0 = no growth, -100 = all killed)
- studyConditions: 10 µM unless noted
About 83,000 compounds went through this panel and 20% of them were active in at least one assay; those are over-represented in the sample as a whole.
growth values, listed per item
testReadout: growth (%)

Cl[C@@H]1CCO[C@H](c2cc3ccccc3c3ccccc23)C1 | 101
O=C(Nc1ccc(-n2cc(-c3ccncc3)c(-c3ccc(O)c(Cl)c3)n2)cc1)Nc1cccc(Cl)c1Cl | 51.3
O=C(Nc1ccc(-n2ccc3c(NC(=O)c4ccccc4)nccc32)cc1)c1cccc(C(F)(F)F)c1 | 11
FC(F)(F)c1cn(CC2CNC2)c2ncnc(Cl)c12 | 109
